- assay.system: human CD33 S131Y (human, UniProt P20138 18-364)
- Sequence (P20138 18-364 S131Y limits assumed): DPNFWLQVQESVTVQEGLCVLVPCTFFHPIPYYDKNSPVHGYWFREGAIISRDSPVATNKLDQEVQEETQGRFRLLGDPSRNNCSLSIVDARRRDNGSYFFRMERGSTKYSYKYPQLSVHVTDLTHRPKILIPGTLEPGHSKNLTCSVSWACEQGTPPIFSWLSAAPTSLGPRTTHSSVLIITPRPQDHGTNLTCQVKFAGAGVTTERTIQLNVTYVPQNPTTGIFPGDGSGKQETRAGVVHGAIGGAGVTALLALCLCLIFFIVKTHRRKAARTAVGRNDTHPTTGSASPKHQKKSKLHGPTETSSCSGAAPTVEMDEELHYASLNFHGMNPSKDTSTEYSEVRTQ
- assay.comment: flow cytometry, HEK293-T, IgG;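 note: CD33 point mutants transiently expressed, antibody binding measured by fluorescence in duplicate, background subtracted and scaled to binding on wild-type CD33 as 100%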
recorded.endpoint: Mean % WT Binding (% WT binding)
Kindly provide the numeric value in % WT binding only, without the unit symbol.

Please report the recorded Mean % WT Binding for Refmab #1 (antibody, human IgG1, V domains shown, tested in IgG format; also called hP67.6) VH: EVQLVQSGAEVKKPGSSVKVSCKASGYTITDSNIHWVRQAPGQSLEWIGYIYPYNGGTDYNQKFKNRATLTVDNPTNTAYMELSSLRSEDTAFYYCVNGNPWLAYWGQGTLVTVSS VL: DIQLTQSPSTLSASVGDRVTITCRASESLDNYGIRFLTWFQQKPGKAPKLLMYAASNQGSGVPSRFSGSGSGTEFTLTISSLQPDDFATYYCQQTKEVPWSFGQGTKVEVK .
97.7

// lookup Mean % WT Binding for Refmab #2 (antibody, human IgG1, V domains shown, tested in IgG format) VH: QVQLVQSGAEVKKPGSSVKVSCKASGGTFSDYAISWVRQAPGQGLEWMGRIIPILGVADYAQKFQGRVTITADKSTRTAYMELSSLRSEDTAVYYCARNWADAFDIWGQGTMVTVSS VL: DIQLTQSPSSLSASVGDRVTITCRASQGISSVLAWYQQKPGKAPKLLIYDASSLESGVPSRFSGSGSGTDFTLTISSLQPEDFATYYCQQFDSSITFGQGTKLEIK
98.5

Query: Mean % WT Binding; subject: Refmab #4 (antibody, human IgG1, V domains shown, tested in IgG format) VH: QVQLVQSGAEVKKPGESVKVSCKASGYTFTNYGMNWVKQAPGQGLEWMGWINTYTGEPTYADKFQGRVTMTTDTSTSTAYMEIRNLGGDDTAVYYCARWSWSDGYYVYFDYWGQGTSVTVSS VL: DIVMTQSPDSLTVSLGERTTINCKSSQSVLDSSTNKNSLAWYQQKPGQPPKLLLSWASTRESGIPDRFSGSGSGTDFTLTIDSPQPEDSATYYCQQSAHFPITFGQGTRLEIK
85.7

Item under review: Refmab #3 (antibody, human IgG1, V domains shown, tested in IgG format) VH: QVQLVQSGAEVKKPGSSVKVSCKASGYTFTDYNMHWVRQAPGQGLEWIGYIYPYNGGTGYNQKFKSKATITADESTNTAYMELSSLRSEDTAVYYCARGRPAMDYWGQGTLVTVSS VL: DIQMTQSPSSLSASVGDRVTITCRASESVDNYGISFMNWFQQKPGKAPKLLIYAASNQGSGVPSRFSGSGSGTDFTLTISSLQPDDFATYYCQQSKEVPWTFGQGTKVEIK . Reported Mean % WT Binding?
97.4
